Target: human TLR9 (Homo sapiens)
Sequence (Q9NR96 26-1032): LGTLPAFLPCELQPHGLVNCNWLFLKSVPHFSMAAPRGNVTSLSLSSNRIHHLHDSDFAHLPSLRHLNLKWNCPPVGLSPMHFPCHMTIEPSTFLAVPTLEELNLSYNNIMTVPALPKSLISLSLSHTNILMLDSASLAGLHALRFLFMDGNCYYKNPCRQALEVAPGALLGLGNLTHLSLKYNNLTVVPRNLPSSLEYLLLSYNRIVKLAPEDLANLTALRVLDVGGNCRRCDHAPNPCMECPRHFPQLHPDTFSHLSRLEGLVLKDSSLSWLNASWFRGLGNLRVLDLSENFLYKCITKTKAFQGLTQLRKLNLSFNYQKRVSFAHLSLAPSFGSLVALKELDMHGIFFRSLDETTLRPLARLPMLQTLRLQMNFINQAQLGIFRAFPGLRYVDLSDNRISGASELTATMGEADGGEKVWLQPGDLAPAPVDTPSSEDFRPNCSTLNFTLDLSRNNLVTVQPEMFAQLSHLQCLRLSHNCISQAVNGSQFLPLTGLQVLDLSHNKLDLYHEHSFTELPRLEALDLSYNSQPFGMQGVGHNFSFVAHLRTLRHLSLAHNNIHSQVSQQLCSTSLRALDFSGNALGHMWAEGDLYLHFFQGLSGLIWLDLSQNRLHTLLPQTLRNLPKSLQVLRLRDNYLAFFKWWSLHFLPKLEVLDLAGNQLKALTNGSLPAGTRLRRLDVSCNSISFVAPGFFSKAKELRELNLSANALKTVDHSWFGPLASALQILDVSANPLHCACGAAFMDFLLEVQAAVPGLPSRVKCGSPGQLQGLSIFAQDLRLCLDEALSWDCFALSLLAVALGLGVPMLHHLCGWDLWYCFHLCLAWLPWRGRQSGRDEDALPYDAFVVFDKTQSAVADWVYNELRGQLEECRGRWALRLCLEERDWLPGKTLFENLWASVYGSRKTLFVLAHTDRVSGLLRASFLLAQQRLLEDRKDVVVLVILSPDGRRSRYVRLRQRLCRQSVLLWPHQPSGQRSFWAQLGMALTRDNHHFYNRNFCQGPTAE
Test: TLR9 inhibition reporter assay (HEK-Blue cells, SEAP reporter)
Conditions: HEK-Blue cells overexpressing human TLR9; stimulated with ODN2006 5 nM; SEAP read after 22 hour; dose range 0.05 nM-50 μM
readout: pIC50
Give bare numbers, as −log10 of the molar value.

CC(=O)Nc1ccc(-c2cc3cc(-c4ccc(N5CCN(C(C)C)CC5)cc4)ccc3[nH]c2=O)cc1 [Example 5] ... 7.23
CC(C)N1CCC(c2ccc(-c3ccc4c(c3)cc(-c3ccccc3)c(=O)n4C)cc2)CC1 [Example 73] ... 6.66
CC(C)N1CCC(N2CCC(c3ccc4[nH]c(=O)c(-c5ccccc5)cc4c3)CC2)CC1 [Example 64] ... 7.52

Please supply pIC50 for each of the following items, keeping them in order.
1. CCC(=O)Nc1ccc(-c2cc3cc(-c4ccc(N5CCN(C(C)C)CC5)cc4)ccc3[nH]c2=O)cc1 [Example 52]
2. CC(C)N1CCN(c2ccc(-c3ccc4[nH]c(=O)c(-c5ccc(C(=O)N6CCOCC6)cc5)cc4c3)cc2)CC1 [Example 55]
3. CC(C)N1CCN(c2ccc(-c3ccc4[nH]c(=O)c(-c5ccccc5F)cc4c3)cc2)CC1 [Example 42]

[out]
6.61
6.42
6.37

----------
Target: human TLR9 (Homo sapiens)
Assay: TLR9 inhibition reporter assay (HEK-Blue cells, SEAP reporter)
Settings: HEK-Blue cells overexpressing human TLR9; stimulated with ODN2006 5 nM; SEAP read after 22 hour; dose range 0.05 nM-50 μM
readout: log10(IC50) (log10 of the value in nM)
# log10 transformed; quantity=IC50; unit=nM

Solved cases below.
CC(C)C(=O)Nc1ccc(-c2cc3cc(-c4ccc(N5CCN(C(C)C)CC5)cc4)ccc3n(C)c2=O)cc1 ... 2.36
CC(C)N1CCC(c2ccc(-c3ccc4c(c3)cc(-c3ccc(S(C)(=O)=O)cc3)c(=O)n4CCO)cc2)CC1 ... 2.19
CC(C)N1CCN(c2ccc(-c3ccc4[nH]c(=O)c(-c5ccccc5C#N)cc4c3)cc2)CC1 ... 2.41
N#Cc1cccc(-c2cc3cc(-c4ccc(C5CCN(C6COC6)CC5)cc4)ccc3[nH]c2=O)c1 ... 3.22
CC(C)N1CCN(c2ccc(-c3ccc4[nH]c(=O)c(-c5ccc(-n6cnnn6)cc5)cc4c3)cc2)CC1 ... 1.90
CC(C)N1CCC(c2ccc(-c3ccc4c(c3)cc(-c3ccc(S(C)(=O)=O)cc3)c(=O)n4CC(C)(C)O)cc2)CC1 ... 2.67

# context switch: different compound, same log10(IC50)
[in] For the compound `CCc1c(-c2ccc(OC)c(OC)c2)c(=O)[nH]c2ccc(-c3ccc(N4CCN(C(C)C)CC4)cc3)cc12` , what log10(IC50) is on record?
[out] 2.84

----------
Molecular target: human TLR7 (Homo sapiens, UniProt Q9NYK1)
Sequence (Q9NYK1 27-1049): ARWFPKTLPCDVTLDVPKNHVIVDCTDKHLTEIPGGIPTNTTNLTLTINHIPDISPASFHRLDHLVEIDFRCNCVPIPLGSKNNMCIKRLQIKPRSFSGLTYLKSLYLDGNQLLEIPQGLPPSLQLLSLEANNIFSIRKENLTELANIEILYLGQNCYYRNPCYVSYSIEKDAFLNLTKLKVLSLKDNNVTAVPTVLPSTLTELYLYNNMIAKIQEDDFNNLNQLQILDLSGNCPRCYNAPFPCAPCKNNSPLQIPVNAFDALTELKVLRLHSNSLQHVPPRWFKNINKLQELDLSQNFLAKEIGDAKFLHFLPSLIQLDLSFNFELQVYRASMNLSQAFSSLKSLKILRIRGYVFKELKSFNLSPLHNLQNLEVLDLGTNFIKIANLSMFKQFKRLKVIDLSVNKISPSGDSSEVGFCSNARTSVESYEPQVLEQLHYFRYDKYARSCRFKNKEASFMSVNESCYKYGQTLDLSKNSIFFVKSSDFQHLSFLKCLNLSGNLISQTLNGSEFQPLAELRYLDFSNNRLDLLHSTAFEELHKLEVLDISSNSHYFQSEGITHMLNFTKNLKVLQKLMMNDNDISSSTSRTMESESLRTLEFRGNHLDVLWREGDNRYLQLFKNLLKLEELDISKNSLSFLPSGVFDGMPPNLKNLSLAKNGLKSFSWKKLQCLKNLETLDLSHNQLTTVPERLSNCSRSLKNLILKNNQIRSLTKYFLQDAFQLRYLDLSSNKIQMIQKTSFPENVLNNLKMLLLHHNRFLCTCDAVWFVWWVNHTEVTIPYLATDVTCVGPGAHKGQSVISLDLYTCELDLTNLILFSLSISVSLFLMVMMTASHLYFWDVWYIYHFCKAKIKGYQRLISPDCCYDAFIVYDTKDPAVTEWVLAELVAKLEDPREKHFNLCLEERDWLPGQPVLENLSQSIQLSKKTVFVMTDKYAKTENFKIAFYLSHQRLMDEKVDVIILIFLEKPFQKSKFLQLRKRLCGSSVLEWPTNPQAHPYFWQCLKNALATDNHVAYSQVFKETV
Test: TLR7 inhibition reporter assay (HEK-Blue cells, SEAP reporter)
Conditions: HEK-Blue cells overexpressing human TLR7; stimulated with gardiquimod 7.5 μM; SEAP read after 22 hour; dose range 0.05 nM-50 μM
readout: pIC50
One number for each entry, as −log10 of the molar value.

Solved cases below.
CCn1c(=O)c(-c2ccc(S(C)(=O)=O)cc2)cc2cc(-c3ccc(C4CCN(C(C)C)CC4)cc3)ccc21 ... 5.27
CC(C)N1CCN(c2ccc(-c3ccc4[nH]c(=O)c(-c5ccccc5NS(C)(=O)=O)cc4c3)cc2)CC1 ... 5.23
CC(C)N1CCN(c2ccc(-c3ccc4[nH]c(=O)c(-c5ccccc5F)cc4c3)cc2)CC1 ... 5.67
CC(C)N1CCN(c2ccc(-c3ccc4[nH]c(=O)c(-c5cccc(NS(C)(=O)=O)c5)cc4c3)cc2)CC1 ... 6.52
CC(C)N1CCN(c2ccc(Nc3ccc4[nH]c(=O)c(-c5ccc(S(C)(=O)=O)cc5)cc4c3)cc2)CC1 ... 5.51
CC(C)N1CCN(c2ccc(-c3ccc4[nH]c(=O)c(-c5ccncc5)cc4c3)cc2)CC1 ... 6.47

Please supply pIC50 for each of the following items, keeping them in order.
1. CC(C)N1CCN(c2ccc(-c3ccc4c(c3)cc(-c3ccc(S(C)(=O)=O)cc3)c(=O)n4C)cc2)CC1
2. CCCn1c(=O)c(-c2ccc(S(C)(=O)=O)cc2)cc2cc(-c3ccc(C4CCN(C(C)C)CC4)cc3)ccc21
3. CC(C)N1CCC(c2ccc(-c3ccc4[nH]c(=O)c(-c5ccc(NS(C)(=O)=O)cc5)cc4c3)cc2)CC1
4. CC(C)N1CCN(c2ccc(-c3ccc4c(c3)cc(-c3ccc(N(C)S(C)(=O)=O)cc3)c(=O)n4C)cc2)CC1

[out]
1: 5.60; 2: 5.08; 3: 6.43; 4: 5.26

[in] For the molecule `CC(C)N1CCN(c2ccc(-c3ccc4[nH]c(=O)c(-c5ccc(C(=O)N(C)C6COC6)cc5)cc4c3)cc2)CC1` , what pIC50 is on record?
[out] 5.31

----------
Exercise: state measured IC50 for each of the compounds provided.
Target: human TLR7 (Homo sapiens)
Assay: TLR7 inhibition reporter assay (HEK-Blue cells, SEAP reporter)
Conditions: HEK-Blue cells overexpressing human TLR7; stimulated with gardiquimod 7.5 μM; SEAP read after 22 hour; dose range 0.05 nM-50 μM
Give bare numbers, in µM.

CCc1c(-c2ccc(OC)c(OC)c2)c(=O)[nH]c2ccc(-c3ccc(N4CCN(C(C)C)CC4)cc3)cc12 [Example 95] ... 5.89
N#Cc1cccc(-c2cc3cc(-c4ccc(C5CCN(C6COC6)CC5)cc4)ccc3[nH]c2=O)c1 [Example 99] ... 16.7

# context switch: different compound, same IC50
[in] For the compound CC(C)N1CCN(c2ccc(-c3ccc4[nH]c(=O)c(-c5ccc(C#N)cc5)cc4c3)cc2)CC1 [Example 12] , what IC50 is on record?
[out] 3

----------
Exercise: state measured IC50 for each of the compounds provided.
Biological target: human TLR8 (Homo sapiens, UniProt Q9NR97)
Sequence (Q9NR97 27-1041): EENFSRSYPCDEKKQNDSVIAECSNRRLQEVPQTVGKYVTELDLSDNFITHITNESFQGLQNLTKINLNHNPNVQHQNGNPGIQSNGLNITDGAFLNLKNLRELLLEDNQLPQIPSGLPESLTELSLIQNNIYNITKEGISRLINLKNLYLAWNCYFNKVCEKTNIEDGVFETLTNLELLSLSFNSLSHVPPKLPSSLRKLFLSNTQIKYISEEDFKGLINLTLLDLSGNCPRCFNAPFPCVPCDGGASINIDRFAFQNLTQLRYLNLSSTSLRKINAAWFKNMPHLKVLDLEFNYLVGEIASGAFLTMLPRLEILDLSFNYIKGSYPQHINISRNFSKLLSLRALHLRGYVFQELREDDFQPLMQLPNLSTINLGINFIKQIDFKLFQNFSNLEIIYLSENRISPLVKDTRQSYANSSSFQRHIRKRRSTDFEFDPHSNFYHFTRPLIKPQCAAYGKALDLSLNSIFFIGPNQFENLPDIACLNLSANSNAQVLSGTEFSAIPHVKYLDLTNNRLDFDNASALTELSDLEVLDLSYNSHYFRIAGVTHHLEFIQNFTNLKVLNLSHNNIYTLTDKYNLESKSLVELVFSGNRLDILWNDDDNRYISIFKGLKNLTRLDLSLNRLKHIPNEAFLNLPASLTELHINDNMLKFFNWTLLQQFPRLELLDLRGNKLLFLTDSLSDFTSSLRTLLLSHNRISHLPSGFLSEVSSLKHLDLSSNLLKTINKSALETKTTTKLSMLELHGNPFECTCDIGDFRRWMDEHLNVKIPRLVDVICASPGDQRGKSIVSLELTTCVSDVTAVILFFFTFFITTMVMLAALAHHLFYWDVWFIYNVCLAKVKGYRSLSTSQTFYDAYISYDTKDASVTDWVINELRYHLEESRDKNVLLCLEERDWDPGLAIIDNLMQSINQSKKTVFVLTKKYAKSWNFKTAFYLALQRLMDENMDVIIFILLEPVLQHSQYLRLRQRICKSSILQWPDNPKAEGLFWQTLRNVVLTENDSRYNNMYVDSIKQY
Test: TLR8 inhibition reporter assay (HEK-Blue cells, SEAP reporter)
Conditions: HEK-Blue cells overexpressing human TLR8; stimulated with R848 15.9 μM; SEAP read after 22 hour; dose range 0.05 nM-50 μM

Please supply IC50 for each of the following items, keeping them in order.
1. N#Cc1cccc(-c2cc3cc(-c4ccc(C5CCN(C6COC6)CC5)cc4)ccc3[nH]c2=O)c1
2. CC(C)N1CCN(c2ccc(Nc3ccc4[nH]c(=O)c(-c5ccc(S(C)(=O)=O)cc5)cc4c3)cc2)CC1

[out]
1. ≥ 50 µM
2. ≥ 50 µM

Please supply IC50 for each of the following items, keeping them in order.
1. CN1CCC(c2ccc3[nH]c(=O)c(-c4ccc(S(C)(=O)=O)cc4)cc3c2)CC1
2. CS(=O)(=O)Nc1cccc(-c2cc3cc(-c4ccc(C5CCN(C6COC6)CC5)cc4)ccc3[nH]c2=O)c1
3. CC(C)N1CCN(c2ccc(-c3ccc4[nH]c(=O)c(-c5ccccn5)cc4c3)cc2)CC1
4. CC(C)N1CCN(c2ccc(-c3ccc4[nH]c(=O)c(-c5cccc(OC(F)(F)F)c5)cc4c3)cc2)CC1
5. CC(C)N1CCN(c2ccc(-c3ccc4[nH]c(=O)c(-c5ccc(OC(F)F)cc5)cc4c3)cc2)CC1

[out]
20.1 µM
26.7 µM
≥ 50 µM
≥ 50 µM
≥ 50 µM

[in] For the compound `O=c1[nH]c2ccc(-c3ccc(C4CCN(C5COC5)CC4)cc3)cc2cc1-c1ccc2nccnc2c1` , what IC50 is on record?
[out] ≥ 50 µM
